molecular target: cAMP-dependent protein kinase catalytic subunit alpha (Homo sapiens) (UniProt P17612); conditions: at 1 µM;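 further: mean percent inhibition of PKA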
Output Yes for inhibition not less than 2%; output No otherwise.

# STRUCTURE_SMILES_STRING, ANSWER_LABEL
records = [
    ("CC(C)(CO)CNC(=O)c1ccc2c(c1)/C(=N/Nc1ccc(S(N)(=O)=O)cc1)C(=O)N2", "No"),
    ("COc1cc(Nc2nccc(Nc3ccc4c(C)n[nH]c4c3)n2)cc(OC)c1OC", "Yes"),
    ("c1cc(-c2cnn3nc(N4CCOCC4)ccc23)nc(NC2CC2)n1", "No"),
    ("CC(C)COC(=O)c1ccc2c(c1)/C(=C/Nc1ccc(S(N)(=O)=O)cc1)C(=O)N2", "Yes"),
    ("CCc1nn2ncccc2c1-c1ccnc(NC2CC2)n1", "No"),
    ("CCn1c(-c2nonc2N)nc2c(C#CC(C)(C)O)nc(OC[C@H](N)c3ccccc3)cc21", "Yes"),
    ("CN1CCC(n2cnc(-c3ccc(F)cc3)c2-c2ccnc(Nc3ccccc3)n2)CC1", "Yes"),
    ("COC(=O)Nc1nc2ccc(S(=O)(=O)c3ccc(NC(=O)Nc4cc(C(F)(F)F)ccc4F)cc3)cc2[nH]1", "No"),
    ("NS(=O)(=O)c1ccc(Nc2ncc(-c3ccccc3)o2)cc1", "Yes"),
    ("COc1cc2c(cc1Nc1nc(Nc3ccsc3C(N)=O)c3cc[nH]c3n1)N(C(=O)CN(C)C)CCC2(C)C", "Yes"),
]

====

target: Tyrosine-protein kinase JAK2 (Homo sapiens); conditions: at 1 µM;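 further: mean JAK2 inhibition from the GSK PKIS screen, compounds tested at 1 µM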

# STRUCTURE_SMILES_STRING, inhibition, %
records = [
    ("Fc1ccc(-c2cc(-c3c[nH]nc3-c3ccccn3)ccn2)cc1", 0.86),
    ("CCn1cc(-c2ccnc3[nH]ccc23)c(-c2cccc(NC(=O)Nc3ccc(OCc4ccccc4)cc3)c2)n1", -1.69),
    ("CN1CCC(n2cnc(-c3ccc(F)cc3)c2-c2ccnc(Nc3ccccc3)n2)CC1", 0.26),
    ("COc1ccc2[nH]c3c4[nH]c5ccc(OC)cc5c4c4c(c3c2c1)C(=O)NC4=O", -1.31),
    ("O=S(=O)(CCNCc1ccc(-c2ccc3ncnc(Nc4ccc(OCc5cccc(F)c5)c(Cl)c4)c3c2)o1)c1ccccc1", 1.11),
    ("O=C(O[C@H]1CN[C@H](C#Cc2cc3ncnc(Nc4ccc(Cc5ccccc5)cc4)c3s2)C1)N1CCOCC1", -0.66),
    ("CC(=O)NCc1cccc(C#Cc2cncnc2Nc2ccc(OCc3cccc(F)c3)c(Cl)c2)c1", -3),
    ("O=C(Nc1n[nH]c2cc(-c3ccc(F)cc3)ccc12)C1CC1", 1.73),
    ("Clc1ccc(-c2nn3ncccc3c2-c2ccnc(Nc3ccccc3)n2)cc1", 0.88),
    ("Cc1ccc(O)cc1Nc1ccnc2cc(-c3ccccn3)ccc12", 3.62),
    ("Nc1ncc(-c2cccc(S(N)(=O)=O)c2)c2scc(-c3ccc(F)c(Cl)c3)c12", 1.31),
    ("COc1ccc2c(-c3ccnc(Nc4cccc(OC(F)(F)F)c4)n3)cnn2n1", 10.9),
    ("CC(=O)Nc1cccc(C#Cc2cncnc2Nc2ccc(OCc3cccc(F)c3)c(Cl)c2)c1", 6.59),
    ("COc1cc(Nc2nccc(Nc3ccc4c(C)n[nH]c4c3)n2)cc(OC)c1OC", 72.5),
    ("c1ccc(-c2nc3n(c2-c2ccc4c(c2)OCO4)CCC3)nc1", -1.02),
    ("COc1ccc(CNC(=O)c2ccc(-c3cc(-c4nnc(C)o4)ccc3C)cc2)cc1", 1.48),
    ("CCN1CCC(CC(=O)Nc2n[nH]c3nnc(-c4cccc(F)c4F)cc23)CC1", 0.1),
    ("COc1cccc(-c2c[nH]c3c(N/N=C/c4ccncc4)ncnc23)c1", 15.1),
    ("CNC(=O)c1cccc(C#Cc2cncnc2Nc2ccc(OCc3cccc(F)c3)c(Cl)c2)c1", 1.34),
    ("COc1cc(N2CCN(C(C)C)CC2)ccc1Nc1nc(Nc2ccc(F)cc2C(N)=O)c2cc[nH]c2n1", 2.59),
]

====

target: Calcium/calmodulin-dependent protein kinase type II subunit delta (Homo sapiens) (UniProt Q13557); conditions: at 0.1 µM;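 further: percent inhibition values are means, taken from the GSK PKIS kinase profiling set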
Sequence (Q13557 whole entry): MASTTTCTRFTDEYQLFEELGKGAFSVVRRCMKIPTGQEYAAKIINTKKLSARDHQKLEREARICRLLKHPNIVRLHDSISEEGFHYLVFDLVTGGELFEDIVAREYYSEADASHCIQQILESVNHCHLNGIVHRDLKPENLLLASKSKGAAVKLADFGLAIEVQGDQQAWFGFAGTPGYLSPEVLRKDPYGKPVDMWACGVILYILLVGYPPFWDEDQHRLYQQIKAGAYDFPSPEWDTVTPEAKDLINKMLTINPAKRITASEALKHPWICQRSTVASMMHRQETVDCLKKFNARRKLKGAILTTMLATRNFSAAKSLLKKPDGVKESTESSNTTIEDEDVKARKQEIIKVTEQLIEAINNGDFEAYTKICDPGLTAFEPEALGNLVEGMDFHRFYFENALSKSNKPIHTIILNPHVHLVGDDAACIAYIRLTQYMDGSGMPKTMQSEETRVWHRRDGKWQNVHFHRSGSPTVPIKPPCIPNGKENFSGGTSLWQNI
Output YES for inhibition not less than 2%; output NO otherwise.

# STRUCTURE_SMILES_STRING, ANSWER_LABEL
records = [
    ("CN(C)CCOc1ccc(-c2nc(-c3ccncc3)c(-c3ccc4c(c3)CC/C4=N\\O)[nH]2)cc1", "NO"),
    ("Nc1nc(-c2ccc(F)cc2)c(-c2ccc3ncccc3n2)s1", "YES"),
    ("COc1cc(N2CCN(C(C)C)CC2)ccc1Nc1nc(Nc2ccc(F)cc2C(N)=O)c2cc[nH]c2n1", "YES"),
    ("CC(=O)NCc1cccc(C#Cc2cncnc2Nc2ccc(OCc3cccc(F)c3)c(Cl)c2)c1", "NO"),
    ("COc1cccc(-n2ncc3c(N/N=C/c4ccc(F)cc4)ncnc32)c1", "YES"),
    ("c1cc(-c2cnn3nc(N4CCOCC4)ccc23)nc(NC2CC2)n1", "YES"),
    ("c1ccc(COc2ccc(Nc3ncnc4ccc(-c5ccco5)cc34)cc2)cc1", "NO"),
    ("CCOc1ccc2c(-c3ccnc(Nc4cccc(C(F)(F)F)c4)n3)cnn2n1", "YES"),
    ("COc1ccc2[nH]c3c4[nH]c5ccc(OC)cc5c4c4c(c3c2c1)C(=O)NC4=O", "YES"),
    ("CCn1c(-c2nonc2N)nc2c(C#CC(C)(C)O)ncc(OC3CCNCC3)c21", "YES"),
]

====

test system: Platelet-derived growth factor receptor alpha (Homo sapiens), P16234 [D842V]; conditions: at 1 µM
Sequence (P16234 whole entry D842V): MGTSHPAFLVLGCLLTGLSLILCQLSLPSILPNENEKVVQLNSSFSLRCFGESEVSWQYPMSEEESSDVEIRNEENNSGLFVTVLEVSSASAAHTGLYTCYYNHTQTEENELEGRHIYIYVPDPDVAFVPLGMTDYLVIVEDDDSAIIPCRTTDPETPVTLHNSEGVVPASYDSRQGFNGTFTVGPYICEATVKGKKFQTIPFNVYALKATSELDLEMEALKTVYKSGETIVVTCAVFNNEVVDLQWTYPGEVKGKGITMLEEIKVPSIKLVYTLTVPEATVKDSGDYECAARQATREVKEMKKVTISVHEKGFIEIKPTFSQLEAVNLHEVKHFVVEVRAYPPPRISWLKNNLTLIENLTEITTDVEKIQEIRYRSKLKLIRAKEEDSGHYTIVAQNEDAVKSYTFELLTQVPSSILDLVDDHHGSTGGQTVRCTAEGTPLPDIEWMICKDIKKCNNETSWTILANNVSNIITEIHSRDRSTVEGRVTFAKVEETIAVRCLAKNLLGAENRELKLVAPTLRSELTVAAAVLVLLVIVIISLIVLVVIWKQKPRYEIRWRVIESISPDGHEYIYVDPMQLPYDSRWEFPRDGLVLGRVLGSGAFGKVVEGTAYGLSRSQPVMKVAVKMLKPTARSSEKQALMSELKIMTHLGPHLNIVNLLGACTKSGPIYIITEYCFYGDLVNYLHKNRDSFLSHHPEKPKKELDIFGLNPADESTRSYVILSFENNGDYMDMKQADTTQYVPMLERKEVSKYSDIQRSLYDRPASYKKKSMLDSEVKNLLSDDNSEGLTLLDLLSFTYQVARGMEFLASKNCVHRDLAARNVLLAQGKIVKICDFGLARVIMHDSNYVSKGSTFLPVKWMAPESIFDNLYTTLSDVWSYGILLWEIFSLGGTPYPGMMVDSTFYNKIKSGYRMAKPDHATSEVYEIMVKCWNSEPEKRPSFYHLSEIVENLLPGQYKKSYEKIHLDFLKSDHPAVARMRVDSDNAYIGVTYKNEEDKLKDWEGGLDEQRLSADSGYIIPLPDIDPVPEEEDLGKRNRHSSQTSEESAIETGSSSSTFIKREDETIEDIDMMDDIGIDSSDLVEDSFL
PARAMETER_MEASURED: inhibition

# COMPOUND, RESULT
measured = [
    ("COc1ccc(-c2oc3ncnc(N)c3c2-c2ccc(NC(=O)Nc3cc(C(F)(F)F)ccc3F)cc2)cc1", "54.4%"),
    ("O=S(=O)(CCNCc1ccc(-c2ccc3ncnc(Nc4ccc(OCc5cccc(F)c5)c(Cl)c4)c3c2)o1)c1ccccc1", "6.47%"),
    ("CNC(=O)c1cncc(/C=C/c2ccccc2Cl)c1", "4.93%"),
    ("O=C(Nc1n[nH]c2cc(-c3ccc(F)cc3)ccc12)C1CC1", "12.9%"),
    ("COc1ccc(CNC(=O)c2ccc(-c3cc(-c4nnc(C)o4)ccc3C)cc2)cc1", "3.96%"),
    ("COc1ccc(-c2cc(-c3c[nH]nc3-c3ccccn3)ccn2)cc1", "58.7%"),
    ("Fc1ccc(-c2nn3ccccc3c2-c2ccncc2)cc1", "5.38%"),
    ("CCn1c(-c2nonc2N)nc2c(C#CC(C)(C)O)ncc(OC3CCNCC3)c21", "33.8%"),
    ("CN(C)CCOc1ccc(-c2nc(-c3ccncc3)c(-c3ccc4c(c3)CC/C4=N\\O)[nH]2)cc1", "3.47%"),
    ("NS(=O)(=O)c1ccc(N/N=C2\\C(=O)Nc3ccc4ncccc4c32)cc1", "92.3%"),
    ("COc1cc2ncn(-c3cc(OCc4ccccc4C(F)(F)F)c(C(=O)N(C)C)s3)c2cc1OC", "23.9%"),
    ("COc1cc(Nc2nccc(Nc3ccc4c(C)n[nH]c4c3)n2)cc(OC)c1OC", "90.2%"),
    ("CC1=C(C(=O)Nc2cc(Cl)c3[nH]ncc3c2)C(c2ccc(C(F)(F)F)cc2)CC(=O)N1 (stereo not given)", "4.3%"),
    ("CN1CCC(n2cnc(-c3ccc(F)cc3)c2-c2ccnc(Nc3ccccc3)n2)CC1", "18.6%"),
    ("CC(C)(CO)CNC(=O)c1ccc2c(c1)/C(=N/Nc1ccc(S(N)(=O)=O)cc1)C(=O)N2", "77.3%"),
    ("Cc1ccc(O)cc1Nc1ccnc2cc(-c3ccccn3)ccc12", "96.2%"),
    ("Fc1cccc(COc2ccc(Nc3ncnc4sc(-c5ccco5)cc34)cc2Cl)c1", "2.87%"),
    ("COC(=O)c1sc(-n2cnc3cc(OC)c(OC)cc32)cc1OCc1ccccc1C(F)(F)F", "66.5%"),
    ("Nc1nc(-c2cccc(Cl)c2)c(-c2ccc3ncccc3n2)s1", "40.8%"),
    ("CC(=O)Nc1cccc(C#Cc2cncnc2Nc2ccc(OCc3cccc(F)c3)c(Cl)c2)c1", "1.82%"),
]

====

biological target: Serine/threonine-protein kinase Nek6 (Homo sapiens) (UniProt Q9HC98); conditions: at 1 µM;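 further: values are mean inhibition of NEK6 from the GSK PKIS screen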
Sequence (Q9HC98 whole entry): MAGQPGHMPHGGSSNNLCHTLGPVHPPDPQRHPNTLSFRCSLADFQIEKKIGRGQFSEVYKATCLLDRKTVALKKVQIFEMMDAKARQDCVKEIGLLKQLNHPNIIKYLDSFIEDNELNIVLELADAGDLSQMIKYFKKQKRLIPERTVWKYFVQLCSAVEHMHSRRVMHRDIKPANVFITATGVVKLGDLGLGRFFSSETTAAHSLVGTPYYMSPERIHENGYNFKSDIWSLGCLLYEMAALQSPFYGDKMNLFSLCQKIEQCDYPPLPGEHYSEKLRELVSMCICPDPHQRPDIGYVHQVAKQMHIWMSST
inhibition overview

# STRUCTURE_SMILES_STRING, inhibition
data = [
    ("CC(C)COC(=O)c1ccc2c(c1)/C(=C/Nc1ccc(S(N)(=O)=O)cc1)C(=O)N2", "9.49%"),
    ("CCCN(CCS(C)(=O)=O)Cc1ccc(-c2ccc3ncnc(Nc4ccc(OCc5cccc(F)c5)c(Cl)c4)c3c2)o1", "0.97%"),
    ("COc1cc2ncn(-c3cc(OCc4ccccc4C(F)(F)F)c(C(=O)N(C)C)s3)c2cc1OC", "-2.22%"),
    ("NC(=O)c1sc(-n2cnc3ccc(C(F)(F)F)cc32)cc1OCc1ccccc1Br", "3.3%"),
    ("Nc1nc(-c2ccc(F)cc2)c(-c2ccc3ncccc3n2)s1", "5.03%"),
]

Cited source: ChEMBL document CHEMBL1961873
